Assay: HepG2 viability loss, ATP readout – cell-based, plate reader, dry powder, set 8, cytotoxicity control, dose response (AID 743331)
Details: CellTiter-Glo ATP luminescence, 72 h; series mostly up to 15 µM
Active and inactive are the calls of the source.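 How the source made its calls: active means falling cell viability signal whose fitted half-effect concentration is at most twice the highest valid tested dose; inconclusive means flat curve with 30 to 70 percent loss, or poor fit; inactive means the rest.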
measurementName: outcome

In the examples that follow, each entry is paired with its recorded outcome.
CN(C)CCCN(Cc1cc2ccccc2[nH]c1=O)C(=O)Nc1ccccc1; inactive
Cc1cnc(NC(=O)c2cc(S(=O)(=O)N(C)C)ccc2C2CCCC2)s1; inactive
Cc1cnc(NC(=O)c2cc(S(=O)(=O)N3CCOCC3)ccc2N2CCCC2)s1; inactive
COc1cccc2sc(NC(=O)c3cc(S(=O)(=O)N(C)C)ccc3N3CCCC3)nc12; inactive
Cc1cnc(NC(=O)c2cc(S(=O)(=O)N(C)C)ccc2N2CCCC2)s1; inactive

Data point: Cc1cnc(NC(=O)c2cc(S(=O)(=O)N(C)C)ccc2N2CCC2)s1 ; outcome = inactive

The molecule listed as COc1ccc2nc(NC(=O)c3cc(S(=O)(=O)N(C)C)ccc3N3CCCC3)sc2c1 has a reported outcome of inactive

Quick note, outcome for CN(C)S(=O)(=O)c1ccc(N2CCCC2)c(C(=O)Nc2nc3ccccc3s2)c1 landed at inactive

Summary for this molecule, COc1ccc2sc(NC(=O)c3cc(S(=O)(=O)N(C)C)ccc3N3CCCC3)nc2c1 : outcome is inactive

get_value(item= Cc1cnc(NC(=O)c2cc(S(=O)(=O)N3CCCCC3)ccc2N2CCCC2)s1 , readout=outcome) returns inactive
